Each record here notes measured pIC50.
- Measurement target: hCRTH2 receptor (Homo sapiens (Human), UniProt Q9Y5Y4)
- Sequence (Q9Y5Y4 whole entry): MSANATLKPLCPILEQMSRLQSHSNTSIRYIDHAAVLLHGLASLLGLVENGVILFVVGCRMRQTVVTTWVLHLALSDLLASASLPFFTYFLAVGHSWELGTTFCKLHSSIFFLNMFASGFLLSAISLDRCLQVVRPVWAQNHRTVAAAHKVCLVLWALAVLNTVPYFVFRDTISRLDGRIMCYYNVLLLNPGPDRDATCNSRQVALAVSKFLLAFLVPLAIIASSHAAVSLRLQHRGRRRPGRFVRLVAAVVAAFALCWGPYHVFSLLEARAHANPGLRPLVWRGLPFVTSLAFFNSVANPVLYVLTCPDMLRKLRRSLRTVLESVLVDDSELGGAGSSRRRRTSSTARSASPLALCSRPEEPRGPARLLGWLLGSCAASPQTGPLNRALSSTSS
- Experimental details: hCRTH2 receptor membranes radioligand (3H-PGD2) displacement assay
- Condition: 3H-PGD2 2.5 nM, HEK293-hCRTH2 membrane fragments, Binding-Buffer with 0.1% BSA
The value called pIC50 is obtained by taking minus log10 of the concentration in mol/L.

# annotated cases, reported pIC50 shown
pIC50 for CN(c1ncc(F)cn1)C1CCc2c(CC(=O)O)c3ccc(C(F)(F)F)cc3n2C1 (centres unmarked) [Example 24] is 8.30

pIC50 for CN(c1nc2cc(F)ccc2o1)C1CCc2c(CC(=O)O)c3ccc(C(F)(F)F)cc3n2C1 (centres unmarked) [Example 28] is 8.10

pIC50 for CN(c1ncc(F)cn1)C1CCc2c(CC(=O)O)c3cc(F)ccc3n2C1 (centres unmarked) [Example 7] is 7.77

pIC50 for CN(c1ncc(C(F)(F)F)cn1)C1CCc2c(CC(=O)O)c3ccccc3n2C1 (centres unmarked) [Example 3] is 8.10

pIC50 for O=C(O)Cc1c2n(c3cc(Cl)ccc13)CC(Nc1ncc(F)cn1)CC2 (centres unmarked) [Example 36] is 7.19

pIC50 for CN(c1nc2cc(F)ccc2o1)C1CCc2c(CC(=O)O)c3ccc(Cl)cc3n2C1 (centres unmarked) [Example 31] is 8.30

Others:
pIC50 for CN(c1ncc2ccc(F)cc2n1)C1CCc2c(CC(=O)O)c3ccc(Cl)cc3n2C1 (centres unmarked) [Example 41] is 9.00

pIC50 for COc1ccc2c(c1)c(CC(=O)O)c1n2CC(N(C)c2ncc(F)cn2)CC1 (centres unmarked) [Example 11] is 6.38

pIC50 for CN(c1nc2cc(F)ccc2o1)C1CCc2c(CC(=O)O)c3ccccc3n2C1 (centres unmarked) [Example 5] is 7.80

pIC50 for CN(c1nc2ccc(F)cc2s1)C1CCc2c(CC(=O)O)c3cc(OC(F)(F)F)ccc3n2C1 (centres unmarked) [Example 27] is 6.09

Cited source for all entries: patent US9096595B2
